The measured values listed here are drawn from patent US12139508B2.

experiment: Pharmacokinetic assay in Balb/c mice (plasma and brain tissue); format: in vivo; conditions: mouse, po; plasma, 5 mg/kg p.o., male Balb/c mice; read-out: Plasma concentration Cmax
Hi, to clarify the labels: Met covers Cmax from 500 ng/mL upward, Not met covers anything below 500 ng/mL.

| smiles-text | qualitative-label |
| --- | --- |
| CC[C@@H]1C[C@H](C(=O)Cn2ccc(C(F)(F)F)n2)[C@@]2(C)CC[C@H]3[C@@H](CC[C@@H]4C[C@](C)(O)CC[C@@H]43)[C@H]12 | Not met |
| CC[C@@H]1C[C@H](C(=O)Cn2cc(C#N)cn2)[C@@]2(C)CC[C@H]3[C@@H](CC[C@@H]4C[C@](C)(O)CC[C@@H]43)[C@H]12 | Met |
| C[C@@]1(O)CC[C@H]2[C@H](CC[C@@H]3[C@@H]2CC[C@@]2(C)[C@H]3[C@@H]3C[C@@H]3[C@@H]2C(=O)COc2cnc(C(F)(F)F)nc2)C1 | Not met |

Cmax >= 500 ng/mL for C[C@@]1(O)CC[C@H]2[C@H](CC[C@@H]3[C@@H]2CC[C@@]2(C)[C@H]3[C@@H]3C[C@@H]3[C@@H]2C(=O)Cn2cc(C(F)(F)F)cn2)C1 ? Not met

Cmax >= 500 ng/mL for C[C@@H]1C[C@H](C(=O)Cn2cc(C#N)c(Cl)n2)[C@@]2(C)CC[C@H]3[C@@H](CC[C@@H]4C[C@](C)(O)CC[C@@H]43)[C@H]12 ? Met

Cmax >= 500 ng/mL for Cc1nnn(CC(=O)[C@H]2C[C@@H](C3CC3)[C@H]3[C@@H]4CC[C@@H]5C[C@](C)(O)CC[C@@H]5[C@H]4CC[C@@]32C)n1 ? Met

* * *

Here the recorded AUC(0-inf) is given for each entry.
assay: Pharmacokinetic assay in Balb/c mice (plasma and brain tissue); format: in vivo; details: mouse, po; plasma, 5 mg/kg p.o., male Balb/c mice; read-out: Area under curve AUC0-∞
Kindly answer with a numeric value in ng·h/mL, unit omitted.

| smiles-text | AUC(0-inf) [ng·h/mL] |
| --- | --- |
| CC[C@@H]1C[C@H](C(=O)Cn2nccn2)[C@@]2(C)CC[C@H]3[C@@H](CC[C@@H]4C[C@](C)(O)CC[C@@H]43)[C@H]12 | 3630 |
| C[C@@]1(O)CC[C@H]2[C@H](CC[C@@H]3[C@@H]2CC[C@@]2(C)[C@H]3[C@@H]3C[C@@H]3[C@@H]2C(=O)Cn2cc([N+](=O)[O-])cn2)C1 | 1060 |

Lab note: Cc1nnn(CC(=O)[C@H]2C[C@@H](C3CC3)[C@H]3[C@@H]4CC[C@@H]5C[C@](C)(O)CC[C@@H]5[C@H]4CC[C@@]32C)n1 gave AUC(0-inf) of 8600

Lab note: CC[C@@H]1C[C@H](C(=O)Cn2ccc(C(F)(F)F)n2)[C@@]2(C)CC[C@H]3[C@@H](CC[C@@H]4C[C@](C)(O)CC[C@@H]43)[C@H]12 gave AUC(0-inf) of 730

Lab note: C[C@@]1(O)CC[C@H]2[C@H](CC[C@@H]3[C@@H]2CC[C@@]2(C)[C@H]3[C@H](C3CC3)C[C@@H]2C(=O)Cn2ccc(C#N)n2)C1 gave AUC(0-inf) of 2970
